Biological target: T1, λD-Acid display phage (gpD fused to acidic aptamer [Gly-Glu]4) (bacteriophage lambda), P03712
T1 chain: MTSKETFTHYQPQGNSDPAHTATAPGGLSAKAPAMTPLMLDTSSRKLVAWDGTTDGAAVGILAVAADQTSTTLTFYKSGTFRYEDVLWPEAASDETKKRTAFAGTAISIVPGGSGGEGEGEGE
Assay: apparent KD, calculated as the concentration of free peptide that results in an IC50 in the λD-Acid:λD-Base co-infection assay
Where no end group is shown, it is not given here.
measured_attribute: pKd
// returns pKd (minus log10 of molar concentration), number only

Please report the recorded pKd for GRGRGRGR (not fully specified) [Basic Aptamer (free synthetic peptide [Gly-Arg]4)] . 8.00
